assay: soluble fraction after stress (log2 fold change); higher = more stays soluble; pooled small domains, quantitative proteomics; settings: stress: 75 degC;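 also: 20 min heating vs room temperature control held 20 min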
soluble fraction (log2) values by entry

{"residue sequence": "HMPYIVNHIHLKSEDPKITADWFVKAFNFEIVSDVVRHFGDRFIVTKAEGGMTINISGVRDGEEL", "soluble fraction (log2)": 0.141}
{"residue sequence": "HMIIIMKKSATNSEVRKVIERAEKEGLTVQVNQLEKQQVLGLVGDTRLIQDVAFLRYEGVENVERI", "soluble fraction (log2)": -2.37}
{"residue sequence": "HMGTVQSVDRALLLLSEIGREPGGLVDLSTRVRLATSTTGRILATLEHAGAVVRGDDGIYHIGPLVHGMVS", "soluble fraction (log2)": -2.04}
{"residue sequence": "HMKPSKTVYTTANLNLRNGASMSAAVYTSVSRGTALATTGRTTSGWTQITHRGRTLWASSKYLTTTTPP", "soluble fraction (log2)": -3.17}
{"residue sequence": "HMITDNEFLRIVSFLKQRYGIDMSQKKVIMNGRLENYLKSGGWSSFDEYMNDVEKDTSGDLEKTLVNFLTT", "soluble fraction (log2)": -1.38}
{"residue sequence": "HMNSLQNNLKQARTRVGLTQGVLASQAGISRQAYSTLESGSANPSTEVALRLAQALQERVELLFYLPER", "soluble fraction (log2)": -0.948}
{"residue sequence": "HMMLVKKMLNGIMMKEITIKELADQYDVSTRTIQLKIKKLGYEWDSKESIYRYVGKESEPLDVDFSTLI", "soluble fraction (log2)": -3}
{"residue sequence": "HMALENTDLYAHLRLSHTASVPEIQAALSARVKHMPLQTWLLARKWLLHPRLRERYDGMWSVRFGA", "soluble fraction (log2)": -2.87}
{"residue sequence": "HMHSFGLHVRNLRKKSNLTLSQLSNASGLSLSAISKIENNQISPSFINLIRLAEGLKMHIADLVTVK", "soluble fraction (log2)": -2.2}
{"residue sequence": "HMEAELNSLVKTYENMKPKAAAQVFEELDMDVLLDVVERMKEKKLAPILAQVTPTRAKEITYELTQRR", "soluble fraction (log2)": -0.102}
{"residue sequence": "HMVSTGIMVVDGRGSVLQHNEAALRQLGVEVLTFESQVKEKLASEDFSVRETTAMLNGKKVRIIAFSDIR", "soluble fraction (log2)": -2.44}
{"residue sequence": "HMENLRLSELTVERGHRLAGRTLADIASAPNSPKYLIVLIQRGQETVIPTGSTVILPGDVLILAQS", "soluble fraction (log2)": -1.7}
{"residue sequence": "HMAVGDMISKLRTAANMSQEQFAELFGVTRQSVQKWENSFSVPELEKLIKISKYFDVSLDALVLRSDARVT", "soluble fraction (log2)": -2.5}
{"residue sequence": "HMKTTKESLLEYIQREVFTDSIHKEGLSTNEIADAFQIQRSNVSSLLNTLVKEGKLEKTTGRPVLYRIPEK", "soluble fraction (log2)": -0.126}
{"residue sequence": "HMQRNLILKLDTDQPEIYKKLESIFVEINGLLVPFFIEKIIWSKQDSLNILFKNSSEALVEQLIGKNVFLP", "soluble fraction (log2)": 0.2}
{"residue sequence": "HMDMAYEVVKAFHDLQDYKDVKGGKVYHHYDVGDTYPRQGLDPAPDETRIEELLSSGNAQGVPLIAEV", "soluble fraction (log2)": 0.112}
{"residue sequence": "HMDNTSNVEKTLRFIRQRGKVSRKEVETLLGSSKFPAISALNELLAENKIVKTGSGPAVRYSVS", "soluble fraction (log2)": -0.353}
{"residue sequence": "HMANMTAKQINMFGDKLSRDKDFQSYYIAKSGDSREQYAQDIKGKLLDPFYVNAWMPYLEKIGFVPS", "soluble fraction (log2)": 0.0935}
{"residue sequence": "HMYYQEDHDIILEETEDVTDPYLITLRGYIFLNNLQWVAARQAFLSADERFRHRHYSALIAPIMQTIDNAA", "soluble fraction (log2)": 0.359}
{"residue sequence": "HMIIDTELMTRVMKFGFSQADASDLVAQHSDDLLRTAISRVEARAESKGMTPLETPAGYFRWTLQDLVRNP", "soluble fraction (log2)": -2.04}
{"residue sequence": "HMDLKSLEFAIVENVQRHDLNPLEEAQGYKRLIDEFSYDQDKVSKFIGKSRSYITNSLRLLNLPLEVLEF", "soluble fraction (log2)": 0.125}
{"residue sequence": "HMENSYSVEDLALKAAISVDTIRYYQGLGLISPPQKNGRRAIYGNDHISRLEEIKKLAFEGFSLRQISLL", "soluble fraction (log2)": 0.111}
